meta.source: the Human Domainome abundance scans (Beltran et al. 2025)

B1: Steroid hormone receptor ERR2, residues 100 to 176; numbered along this chain, O95718 (parent)
chain: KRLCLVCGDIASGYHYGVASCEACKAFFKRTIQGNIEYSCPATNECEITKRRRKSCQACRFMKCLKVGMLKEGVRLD

# Variants of: B1
# Method Notes: abundance fitness (aPCA) (normalised: wild type 0, dead -1); higher = more abundant; growth selection in yeast, the domain comes from the species named
# Condition Details: Homo sapiens
Quick rule for you: abundance fitness at -0.2 or higher means Satisfied, lower means Not satisfied.

# Variant Description, Group
records = [
    ("L3E", "Satisfied"),
    ("C64H", "Not satisfied"),
    ("E37M", "Not satisfied"),
    ("C64F", "Not satisfied"),
    ("H15P", "Not satisfied"),
    ("T49P", "Not satisfied"),
    ("K54H", "Satisfied"),
    ("C21G", "Not satisfied"),
    ("Q57H", "Not satisfied"),
    ("G13N", "Not satisfied"),
    ("T31G", "Not satisfied"),
    ("F28C", "Not satisfied"),
    ("G34H", "Not satisfied"),
    ("S12N", "Satisfied"),
    ("A23P", "Satisfied"),
    ("L3S", "Satisfied"),
    ("S12V", "Satisfied"),
    ("C21Y", "Not satisfied"),
    ("G34C", "Not satisfied"),
    ("E22Y", "Satisfied"),
    ("L5A", "Satisfied"),
    ("R2N", "Satisfied"),
]
